Measured growth accompanies every entry in the list below.
- Tested on: CCRF-CEM leukemia
- assayProcedure: NCI-60 one-dose screen, 48 h (100 = growth as untreated, 0 = no growth, -100 = all killed)
- experimentalContext: 10 µM unless noted
Compounds without any hit were thinned out: in the full panel of roughly 83,000, 20% have a hit.
Provide the reading as a plain figure in %.

Known growth results, listed for orientation:
{"columns": ["compound", "growth, %"],
 "data": [
  ["CC1(c2ccc3ccccc3c2)CCC(=O)O1 (configuration not stated)", 105],
  ["Nc1n[nH]c(=S)n1-c1ccc(Cl)cc1", 96.7]
]}

Note: attention shifts to another entry.
Report growth on CCRF-CEM leukemia for this entry: O=C(N/N=C/c1cccc2ccccc12)C1CC1
88.3
